IC50 tested on human ACC2 (Homo sapiens (Human)): recorded values
Sequence (O00763 129-2458): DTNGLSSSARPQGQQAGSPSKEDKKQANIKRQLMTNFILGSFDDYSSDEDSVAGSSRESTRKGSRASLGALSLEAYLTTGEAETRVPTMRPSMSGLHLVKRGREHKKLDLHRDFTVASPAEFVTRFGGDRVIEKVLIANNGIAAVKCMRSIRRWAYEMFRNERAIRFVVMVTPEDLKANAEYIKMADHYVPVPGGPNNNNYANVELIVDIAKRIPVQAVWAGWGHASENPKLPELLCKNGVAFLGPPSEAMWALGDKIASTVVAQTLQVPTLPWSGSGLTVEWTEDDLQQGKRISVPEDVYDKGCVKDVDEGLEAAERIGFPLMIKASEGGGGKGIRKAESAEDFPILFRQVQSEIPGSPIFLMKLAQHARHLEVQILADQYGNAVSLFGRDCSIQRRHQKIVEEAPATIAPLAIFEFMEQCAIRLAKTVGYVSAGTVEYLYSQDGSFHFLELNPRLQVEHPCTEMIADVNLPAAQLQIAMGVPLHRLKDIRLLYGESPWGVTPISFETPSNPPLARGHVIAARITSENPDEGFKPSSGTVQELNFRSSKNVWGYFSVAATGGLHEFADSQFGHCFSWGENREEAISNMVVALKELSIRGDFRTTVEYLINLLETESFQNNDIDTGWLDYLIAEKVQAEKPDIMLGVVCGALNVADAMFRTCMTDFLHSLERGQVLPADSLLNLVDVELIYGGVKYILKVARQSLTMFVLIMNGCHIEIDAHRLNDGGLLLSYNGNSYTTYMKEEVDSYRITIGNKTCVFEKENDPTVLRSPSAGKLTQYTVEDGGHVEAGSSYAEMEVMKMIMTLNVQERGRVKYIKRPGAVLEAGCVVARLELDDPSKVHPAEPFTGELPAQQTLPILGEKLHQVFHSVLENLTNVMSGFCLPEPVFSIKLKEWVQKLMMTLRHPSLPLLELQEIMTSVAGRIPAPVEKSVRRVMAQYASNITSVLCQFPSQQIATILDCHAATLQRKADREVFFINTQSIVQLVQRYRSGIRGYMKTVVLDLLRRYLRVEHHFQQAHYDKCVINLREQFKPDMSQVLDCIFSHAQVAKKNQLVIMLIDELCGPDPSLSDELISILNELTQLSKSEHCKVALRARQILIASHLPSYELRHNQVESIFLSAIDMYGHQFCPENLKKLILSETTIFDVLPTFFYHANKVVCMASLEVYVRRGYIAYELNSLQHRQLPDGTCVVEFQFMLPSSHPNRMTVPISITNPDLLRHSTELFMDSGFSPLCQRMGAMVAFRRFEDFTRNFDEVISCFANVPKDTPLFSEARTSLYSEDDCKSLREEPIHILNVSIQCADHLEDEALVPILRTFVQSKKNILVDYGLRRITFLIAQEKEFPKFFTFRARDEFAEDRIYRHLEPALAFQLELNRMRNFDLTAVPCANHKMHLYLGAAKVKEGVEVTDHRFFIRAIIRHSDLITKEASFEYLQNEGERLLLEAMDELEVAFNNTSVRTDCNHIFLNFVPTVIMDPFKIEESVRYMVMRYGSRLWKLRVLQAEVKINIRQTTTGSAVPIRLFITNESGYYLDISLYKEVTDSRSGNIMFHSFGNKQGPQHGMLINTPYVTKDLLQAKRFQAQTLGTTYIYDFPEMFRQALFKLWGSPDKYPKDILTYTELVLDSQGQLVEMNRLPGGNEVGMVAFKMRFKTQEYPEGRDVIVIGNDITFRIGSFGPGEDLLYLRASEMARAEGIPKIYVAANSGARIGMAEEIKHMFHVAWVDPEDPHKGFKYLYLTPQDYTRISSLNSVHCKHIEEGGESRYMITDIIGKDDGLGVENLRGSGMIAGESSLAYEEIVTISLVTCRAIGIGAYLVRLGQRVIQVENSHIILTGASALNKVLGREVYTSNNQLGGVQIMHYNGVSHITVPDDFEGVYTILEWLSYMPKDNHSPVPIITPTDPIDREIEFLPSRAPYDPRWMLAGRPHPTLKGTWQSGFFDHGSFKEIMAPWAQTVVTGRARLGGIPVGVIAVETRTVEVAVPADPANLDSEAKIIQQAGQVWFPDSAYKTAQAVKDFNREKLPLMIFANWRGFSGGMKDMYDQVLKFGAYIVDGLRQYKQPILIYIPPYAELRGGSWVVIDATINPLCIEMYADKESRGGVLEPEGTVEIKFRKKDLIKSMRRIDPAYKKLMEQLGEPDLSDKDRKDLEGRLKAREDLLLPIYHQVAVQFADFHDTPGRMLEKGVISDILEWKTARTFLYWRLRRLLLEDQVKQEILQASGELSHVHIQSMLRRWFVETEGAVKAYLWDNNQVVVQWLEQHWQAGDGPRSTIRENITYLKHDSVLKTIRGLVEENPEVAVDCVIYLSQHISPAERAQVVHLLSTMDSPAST
QUANTITY NAME: IC50 (nM)

Solved entries:
Qu. Tell me its IC50 given CC(CNC(=O)N(C)C)c1ccc(C#Cc2cnc(OC3CCC3)nc2)cc1 (centres unmarked) as the entry.
Ans. 130

Qu. Tell me its IC50 given CC(=O)NC(C)Cc1ccc(C#Cc2ccc(C(=O)N(C)C)cc2)cc1 (centres unmarked) as the entry.
Ans. 3900

Qu. Tell me its IC50 given CC(=O)NC(C)Cc1ccc(C#Cc2ccc(OC(C)C)nc2)cc1 (centres unmarked) as the entry.
Ans. 240

P: CC(=O)NC(C)Cc1ccc(C#Cc2cccc3ncccc23)cc1 (centres unmarked)
Q: CC(=O)NC(C)Cc1ccc(C#Cc2ccc3ncccc3c2)cc1 (centres unmarked)
Qu. Quick one: lower IC50, P or Q ? State the label of the item chosen.
Ans. Q
(Q: 1100 nM, P: 3300 nM)
